B1: POU domain, class 3, transcription factor 4, residues 280 to 335; numbered along this chain, P49335 (parent)
chain: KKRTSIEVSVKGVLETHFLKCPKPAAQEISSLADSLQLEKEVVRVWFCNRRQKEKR

Variants of: B1
protocol_details: abundance fitness (aPCA) (normalised: wild type 0, dead -1); higher = more abundant; growth selection in yeast, the domain comes from the species named
setup_conditions: Homo sapiens
Threshold rule: abundance fitness greater than or equal to -0.2 is criterion met; below that, criterion not met.

    variant_name              group
 0          K40P      criterion met
 1           E7K      criterion met
 2           S5P      criterion met
 3          P22L  criterion not met
 4          L19S      criterion met
 5          L32T  criterion not met
 6          R56G  criterion not met
 7          Q52G  criterion not met
 8          R44L  criterion not met
 9          A26H  criterion not met
10           E7Y  criterion not met
11          P24L  criterion not met
12          K11M      criterion met
13          K40Y      criterion met
14          L38G  criterion not met
15          R56S      criterion met
16           I6A  criterion not met
17          V43T  criterion not met
18          K23D      criterion met
19          K11V      criterion met
20           V8S      criterion met
